test: collision cross section in nitrogen (drift tube, single-field); higher = larger gas-phase ion size; conditions: ion type: [M+H]; ion source: ESI; ion mode: Positive;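 note: chemical standards at 10 µM analysed by drift tube IMS-QTOF MS in about 3.95 torr nitrogen, mean of duplicate injections differing ≤1%, mass error below 10 ppm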
Counter-ions that a name gives are not always drawn.
measured-metric: collision cross section in nitrogen (Å²)

Record excerpt, results attached:
# compound, collision cross section in nitrogen / Å²
rows = [
    ("C[C@]1(Cn2ccnn2)[C@H](C(=O)O)N2C(=O)C[C@H]2S1(=O)=O [Tazobactam sodium]", 161.8),
    ("CNC(=O)[C@H]1O[C@@H](n2cnc3c(NCc4cc(Cl)ccc4OCc4cc(C)no4)ncnc32)[C@H](O)[C@@H]1N", 216.2),
    ("Nc1nc2ccccc2[nH]1 [2-Aminobenzimidazole]", 126.8),
    ("COc1c2occc2c(OC)c2c(=O)cc(C)oc12 [Khellin]", 151.1),
    ("O=C(Nc1ccc2c(O)c(N=Nc3ccc(N=Nc4ccc(S(=O)(=O)O)cc4)cc3)c(S(=O)(=O)O)cc2c1)c1ccccc1 [C.I. Direct Red 81 disodium salt]", 276.7),
    ("Cc1ccc(O)cn1 [6-Methyl-3-hydroxypyridine]", 119.4),
    ("COc1ccc2cc(S(=O)(=O)N[C@H](CC(=O)N[C@H](Cc3ccc(CN4[C@H](C)CCC[C@@H]4C)cc3)C(=O)N(C)C(C)C)c3ccc4c(c3)OCO4)ccc2c1", 267),
    ("O=C(COc1ccc(Cl)cc1)N1CCN(Cc2ccc3c(c2)OCO3)CC1 [Fipexide hydrochloride]", 190.3),
    ("O=C(NCc1cccnc1)Nc1ccc([N+](=O)[O-])cc1 [N-(4-Nitrophenyl)-N'-(3-pyridinylmethyl)urea]", 174.3),
    ("COc1ccc(C(CN(C)C)C2(O)CCCCC2)cc1 (configuration not stated) [Venlafaxine hydrochloride]", 170.7),
]

a: CC(C)NCC(O)COc1cccc2ccccc12 (configuration not stated) [Propranolol hydrochloride]
b: Cc1ccc(S(=O)(=O)Oc2ccc(N=Nc3ccc(-c4ccc(N=Nc5c(O)ccc6cc(S(=O)(=O)O)cc(S(=O)(=O)O)c56)c(C)c4)cc3C)cc2)cc1 [C.I. Acid Red 114]
IN: Could you point out whether the larger collision cross section in nitrogen belongs to a or to b ? Kindly state the label of the option you pick.
OUT: b

----------
assay: collision cross section in nitrogen (drift tube, single-field); higher = larger gas-phase ion size; settings: ion type: [M+Na]; ion source: ESI; ion mode: Positive
measured-metric: collision cross section in nitrogen (Å²)

# compound, measured-metric, readout-value
measured = [
    ("O=C(O)c1ccccc1C(=O)Nc1cccc2ccccc12", "collision cross section in nitrogen", 170.9),
    ("C=C(C)C(=O)OCC(O)COc1ccc(C(C)(C)c2ccc(OCC(O)COC(=O)C(=C)C)cc2)cc1 (stereo not given) [Bisphenol A glycidyl methacrylate]", "collision cross section in nitrogen", 215.5),
    ("CC(=O)CCc1ccc(OC(C)=O)cc1 [4-[4-(Acetyloxy)phenyl]-2-butanone]", "collision cross section in nitrogen", 146.4),
    ("COc1ccc([C@@H]2CC(=O)c3c(O)cc(O[C@@H]4O[C@H](CO[C@@H]5O[C@@H](C)[C@H](O)[C@@H](O)[C@H]5O)[C@@H](O)[C@H](O)[C@H]4O)cc3O2)cc1OC", "collision cross section in nitrogen", 232.5),
    ("COC(OC)(C(=O)c1ccccc1)c1ccccc1", "collision cross section in nitrogen", 170.6),
]
